// data source = paper PMC6956158

assay: Blood-to-plasma concentration ratio (RB), blood distribution
Type: in vitro ADME
condition_label: rat, fresh rat blood, DUT 5 μM in the presence of KET 5 μM, 37 °C
readout_name: blood plasma ratio at 60 min, 5 μM
Answer field: number only, no words.

Q) Reported blood plasma ratio at 60 min, 5 μM, compound C[C@]12C=CC(=O)N[C@@H]1CC[C@@H]1[C@@H]2CC[C@]2(C)[C@@H](C(=O)Nc3cc(C(F)(F)F)ccc3C(F)(F)F)CC[C@@H]12 [DUT, Dutasteride] : ____
A) 0.692

###

assay: In vivo pharmacokinetic study in rats, intravenous DUT without or with intravenous KET
Design: species or system rat
condition_label: male, Sprague-Dawley, rat, plasma, iv, 2.5 mg/kg, intravenous DUT 2.5 mg/kg with intravenous KET 20 mg/kg, n = 4
readout_name: Cmax (ng/mL)
Just the number please, in ng/mL, no unit attached.

Q) Reported Cmax, compound C[C@]12C=CC(=O)N[C@@H]1[C@H](O)C[C@@H]1[C@@H]2CC[C@]2(C)[C@@H](C(=O)Nc3cc(C(F)(F)F)ccc3C(F)(F)F)CC[C@@H]12 [H-DUT, 6β-hydroxydutasteride] : ____
A) 116
